Listed here: compounds with reported Ki for Beta-3 adrenergic receptor (Homo sapiens, UniProt P13945).
Just the number in µM, nothing appended.

For this compound ( O=C(O)c1cc(-c2ccc(C3=CC4(CNC4)C3)cc2)c2ccc(-c3ccc(C(F)(F)F)cc3)cc2c1 ), measured Ki is 6.8

For this compound ( O=C(O)c1cc(-c2ccc(C3CCCNCC3)cc2)c2ccc(-c3ccc(C(F)(F)F)cc3)cc2c1 (racemic) ), measured Ki is 6.6

###

Listed here: molecules with reported Ki for Histamine H1 receptor (Homo sapiens).

For this molecule ( O=C(O)c1cc(-c2ccc(C3CCCNCC3)cc2)c2ccc(-c3ccc(C(F)(F)F)cc3)cc2c1 (racemic) ), measured Ki is 2.8 µM

For this molecule ( O=C(O)c1cc(-c2ccc(C3=CC4(CNC4)C3)cc2)c2ccc(-c3ccc(C(F)(F)F)cc3)cc2c1 ), measured Ki is 5.6 µM

###

For each record, write down the corresponding logD at 20 h.
Experiment: Lipophilicity, log D of compound at pH 7.4 incubated for 20 hrs by HPLC analysis
Format: physicochemical
Conditions: buffer
Quick one: just the number, no unit, thanks!

For this molecule ( O=C(O)c1cc(-c2ccc(C3C[C@H]4CNC[C@@H]4C3)cc2)c2ccc(-c3ccc(C(F)(F)F)cc3)cc2c1 (racemic) ), measured logD at 20 h is 2.4

For this molecule ( O=C(O)c1cc(-c2ccc(C3=CC4(CNC4)C3)cc2)c2ccc(-c3ccc(C(F)(F)F)cc3)cc2c1 ), measured logD at 20 h is 1.9

For this molecule ( O=C(O)c1cc(-c2ccc(C3CCNC3)cc2)c2ccc(-c3ccc(C(F)(F)F)cc3)cc2c1 (racemic) ), measured logD at 20 h is 1.6

For this molecule ( O=C(O)c1cc(-c2ccc(C3CCCNCC3)cc2)c2ccc(-c3ccc(C(F)(F)F)cc3)cc2c1 (racemic) ), measured logD at 20 h is 2.1

For this molecule ( O=C(O)c1cc(-c2ccc(C3(O)C[C@H]4CNC[C@@H]4C3)cc2)c2ccc(-c3ccc(C(F)(F)F)cc3)cc2c1 (racemic) ), measured logD at 20 h is 1.1

For this molecule ( O=C(O)c1cc(-c2ccc([C@]3(O)[C@@H]4CNC[C@H]3C4)cc2)c2ccc(-c3ccc(C(F)(F)F)cc3)cc2c1 ), measured logD at 20 h is 1.2

###

Target: Cytochrome P450 1A2 (Homo sapiens, UniProt P05177)
Sequence (P05177 whole entry): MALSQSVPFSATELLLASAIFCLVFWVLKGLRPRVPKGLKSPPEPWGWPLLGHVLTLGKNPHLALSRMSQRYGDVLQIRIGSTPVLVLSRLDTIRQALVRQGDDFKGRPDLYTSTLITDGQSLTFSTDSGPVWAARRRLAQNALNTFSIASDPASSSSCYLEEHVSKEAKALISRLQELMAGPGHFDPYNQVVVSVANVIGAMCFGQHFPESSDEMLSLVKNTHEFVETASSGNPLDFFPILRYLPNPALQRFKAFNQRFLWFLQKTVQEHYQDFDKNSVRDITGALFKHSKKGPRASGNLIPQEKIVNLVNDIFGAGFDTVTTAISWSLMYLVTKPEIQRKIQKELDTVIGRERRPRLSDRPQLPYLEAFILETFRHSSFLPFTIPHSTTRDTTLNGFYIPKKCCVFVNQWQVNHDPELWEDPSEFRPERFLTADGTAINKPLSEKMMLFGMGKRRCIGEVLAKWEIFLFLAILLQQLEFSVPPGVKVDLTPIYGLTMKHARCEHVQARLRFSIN
pIC50: −log10 of the molar value.
measured_parameter: pIC50

For this molecule ( O=C(O)c1cc(-c2ccc([C@]3(O)[C@@H]4CNC[C@H]3C4)cc2)c2ccc(-c3ccc(C(F)(F)F)cc3)cc2c1 ), measured pIC50 is < 4.52
